Give GFP response relative to DMSO for every item shown.
- Protocol Description: LAP4-GFP expression modulators in yeast, confirmation, cell-based, cherry picks, flow cytometry, mother/daughter gates (AID 2271);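 further: ratio of sample to DMSO plate mean so 100% equals DMSO level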
- Run Conditions: S. cerevisiae LAP4-GFP strain, 3 h, measured here: mother cell gate response, at 10 µM, stronger effect = higher value, 100 means same as DMSO control
Write it as a number; the unit % goes unstated.

`COc1cc(N2C(=O)C=CC2=O)c(OC)cc1Cl` has a reported GFP response relative to DMSO of 272

According to the records, this molecule `N#C/C(C(=O)Nc1ccc(Cl)cc1)=C(/S)Nc1ccccc1` displays GFP response relative to DMSO of 104

Input `N/C(Cc1ccc(Cl)c(Cl)c1)=N\OC(=O)c1cccs1` . Output GFP response relative to DMSO: 206

Briefly, GFP response relative to DMSO measured for `O=C1c2ccsc2SCCN1Cc1ccc(Cl)cc1Cl` : 110

For record `COc1ccc(-c2sc(C(=O)c3ccc(Cl)cc3Cl)cc2CC(=O)O)cc1` the listed GFP response relative to DMSO is 131

GFP response relative to DMSO recorded for this molecule, `O=C(NNC(=O)C1CCCCC1)C(=O)NC1CCCCC1` , is 97.5

Reported GFP response relative to DMSO for `COc1ccc(NC(=O)Nc2ccon2)c(OC)c1` was 95.2

Lab note: `FC(F)(F)c1cc(-c2cccs2)nc2cc(-c3cccs3)nn12` gave GFP response relative to DMSO of 97.3

molecule `CS/C(N)=N/N=C/c1ccc2c(c1)OCO2` , GFP response relative to DMSO observed: 108

Value of GFP response relative to DMSO reported for the molecule `CCCn1c(=N)c(C(=O)NC2CCCC2)cc2c(=O)n3cccc(C)c3nc21` is 99.3

The recorded GFP response relative to DMSO for `Cc1cc(S(=O)(=O)c2ccc([N+](=O)[O-])cn2)ccc1Br` is 156

Briefly, GFP response relative to DMSO measured for `CCN(CC)c1ccc(/C=C2\SC(=O)N(C(C)C)C2=O)o1` : 117

====

- Protocol Description: modulators of AGP1-GFP expression in yeast TOR pathway, primary screen, cell-based, multiplex flow cytometry, S. cerevisiae (AID 1887);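 further: AGP1-GFP fusion strain of S. cerevisiae within a five-strain barcoded multiplex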
- Run Conditions: 3 h, at 10 µM, stronger effect = higher value
Inconclusive results are not listed. Calls of active or inactive are those of the source.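 How the source made its calls: active means GFP signal above the screen-wide mean plus 3 SD, that is over about 124.5% of the solvent control; inconclusive means no reading because the compound's own fluorescence disturbed strain identification; inactive means the rest.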
Please provide measured GFP response, % of DMSO for the entries that follow.

Item: `CC[C@]1(O)C[C@@H]2CN(CCc3c([nH]c4ccccc34)[C@@](C(=O)OC)(c3cc4c(cc3OC)N(C)[C@H]3[C@@](O)(C(=O)OC)[C@H](OC(C)=O)[C@]5(CC)C=CCN6CC[C@]43[C@@H]65)C2)C1` | GFP response, % of DMSO: 99% (inactive)

For record `CC(=O)Oc1ccc2occ(/C=N/c3cc(=O)[nH]c(=S)[nH]3)c(=O)c2c1` the listed GFP response, % of DMSO is 98.5% (inactive)

GFP response, % of DMSO measured on CCCOc1ccc(-c2cc(C(=O)NCC3CCCO3)c3ccccc3n2)cc1 (centres undefined) = 84.4% (inactive)

Reported GFP response, % of DMSO for `COC(=O)c1cc(OC)c(OC)c(OC)c1[N+](=O)[O-]` was 105% (inactive)

Note to self: GFP response, % of DMSO recorded for CN(C)CCC(c1ccc(Br)cc1)c1ccccn1 (centres undefined) was 100% (inactive)

In plain terms, `CCOC(=O)c1cnc2ccccc2c1NCCO` has a documented GFP response, % of DMSO of 103% (inactive)

Sure, the documented GFP response, % of DMSO for `C[C@]12CC[C@@H]3c4cc(O)c(O)cc4CC[C@H]3[C@@H]1CC[C@@H]2O` is 90% (inactive)

Just so you know, measured GFP response, % of DMSO for O=C1C2C3C=CC(C4CC34)C2C(=O)N1/N=C/c1ccc(-c2ccc([N+](=O)[O-])cc2)o1 (centres undefined) came out at 87.7% (inactive)

The reported value for `CCN(CC)CCOC(=O)C1(C2CCCCC2)CCCCC1` in terms of GFP response, % of DMSO is 108% (inactive)
